Experiment: Half life in brain of male C57BL6 mouse at 3 mg/kg, po
Format: ADME, organism-based
Reported half-life is given for each of the following compounds.
Please give a number only; it is taken to be in h.

CCCOc1cc(CCN)c(OC)cc1Br; 1.29

Now turn to the next compound.
*Q* # return recorded half-life for input `CN(C)CCc1c[nH]c2cccc(O)c12`
*A* 4.47

---

Assay: Tmax in brain of male C57BL6 mouse at 3 mg/kg, po
Type: ADME, organism-based
# key: entry, value: Tmax
State the value, then name its unit.

CCCOc1cc(CCN)c(OC)cc1Br; 60 min

*Q* For the compound `CN(C)CCc1c[nH]c2cccc(O)c12` , give its reported Tmax.
*A* 30 min
